Biological target: ALS enzyme extracted from Mutant 10 (heterozygous)
Assay: ALS enzyme assay, heterozygous Mutant 10
Conditions: ALS of heterozygous Mutant 10; read-out: ID50% (the source's name)
assay_readout: IC50 (µM)
One number for each entry, in µM.

For each of the items listed, what is its IC50?
1. COC(=O)c1sccc1S(=O)(=O)NC(=O)Nc1nc(C)nc(OC)n1
2. CCc1cnc(C2=NC(=O)C(C)(C(C)C)N2)c(C(=O)O)c1 (stereo not drawn)

**A:**
1. 0.39
2. 15

###

Target: ALS enzyme extracted from Mutant 1 (heterozygous)
Assay: ALS enzyme assay, heterozygous Mutant 1
Settings: ALS of heterozygous Mutant 1; read-out: ID50% (the source's name)
So I've got a bunch of compounds here, and I need their IC50 values.
Numbers only, in µM.

INSERT INTO results (compound, measure_unit, endpoint_value) VALUES
  ('COc1nc(C)nc(NC(=O)NS(=O)(=O)c2ccccc2Cl)n1', 'µM', 0.065),
  ('COc1cc(Cl)nc(NC(=O)NS(=O)(=O)c2ccccc2C(=O)O)n1', 'µM', 0.005),
  ('CC(C)C1(C)N=C(c2nc3ccccc3cc2C(=O)O)NC1=O (stereo not drawn)', 'µM', 150);

We next turn to a different compound, shown below.
**Q:** Could you tell me which IC50 is on file for COC(=O)c1sccc1S(=O)(=O)NC(=O)Nc1nc(C)nc(OC)n1 ?
**A:** 0.055

###

System: ALS enzyme extracted from Mutant 7 (heterozygous)
Test: ALS enzyme assay, heterozygous Mutant 7
Type: biochemical, Zea mays
Conditions: Mutant 7; groups Strong, Intermediate, Weak, Zero
assay_readout: resistance group, Enzyme Assay

Please review the entries below; each comes with its answer.
INSERT INTO results (compound, endpoint_value) VALUES
  ('CC(C)C1(C)N=C(c2nc3ccccc3cc2C(=O)O)NC1=O (stereo not drawn)', 'Weak'),
  ('CCc1cnc(C2=NC(=O)C(C)(C(C)C)N2)c(C(=O)O)c1 (stereo not drawn)', 'Weak'),
  ('COc1nc(C)nc(NC(=O)NS(=O)(=O)c2ccccc2Cl)n1', 'Zero'),
  ('COc1cc(Cl)nc(NC(=O)NS(=O)(=O)c2ccccc2C(=O)O)n1', 'Weak');

Query compound follows.
**Q:** Please give the measured resistance group, Enzyme Assay for this compound: COC(=O)c1sccc1S(=O)(=O)NC(=O)Nc1nc(C)nc(OC)n1
**A:** Zero

###

Test system: ALS enzyme extracted from Mutant 5 (heterozygous)
Test: ALS enzyme assay, heterozygous Mutant 5
Assay type: biochemical, Zea mays
Details: Mutant 5; groups Strong, Intermediate, Weak, Zero
assay_readout: resistance group, Enzyme Assay

INSERT INTO assay_data (compound, measurement_target, assay_readout, endpoint_value) VALUES
  ('COC(=O)c1sccc1S(=O)(=O)NC(=O)Nc1nc(C)nc(OC)n1', 'ALS enzyme extracted from Mutant 5 (heterozygous)', 'resistance group, Enzyme Assay', 'Intermediate'),
  ('COc1nc(C)nc(NC(=O)NS(=O)(=O)c2ccccc2Cl)n1', 'ALS enzyme extracted from Mutant 5 (heterozygous)', 'resistance group, Enzyme Assay', 'Weak'),
  ('CCc1cnc(C2=NC(=O)C(C)(C(C)C)N2)c(C(=O)O)c1 (stereo not drawn)', 'ALS enzyme extracted from Mutant 5 (heterozygous)', 'resistance group, Enzyme Assay', 'Intermediate'),
  ('CC(C)C1(C)N=C(c2nc3ccccc3cc2C(=O)O)NC1=O (stereo not drawn)', 'ALS enzyme extracted from Mutant 5 (heterozygous)', 'resistance group, Enzyme Assay', 'Intermediate');

# next compound below
**Q:** Consider the compound COc1cc(Cl)nc(NC(=O)NS(=O)(=O)c2ccccc2C(=O)O)n1 and give its measured resistance group, Enzyme Assay.
**A:** Weak
